Values were extracted from patent US8853230B2.

- tested.system: JAK1 (Homo sapiens, UniProt P23458)
- Construct: 5 μl of catalytic domain recombinant Kinase enzyme+Tyr peptide substrate (Invitrogen, Calif.)
- Sequence (P23458 875-1153 limits assumed): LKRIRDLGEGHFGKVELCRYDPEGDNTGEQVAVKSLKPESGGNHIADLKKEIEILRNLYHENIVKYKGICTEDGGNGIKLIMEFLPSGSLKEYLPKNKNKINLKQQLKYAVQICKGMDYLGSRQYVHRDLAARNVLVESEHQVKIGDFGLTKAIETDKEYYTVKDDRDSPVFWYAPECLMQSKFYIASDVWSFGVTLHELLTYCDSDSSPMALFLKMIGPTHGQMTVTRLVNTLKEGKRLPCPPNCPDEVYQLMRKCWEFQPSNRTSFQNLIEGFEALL
- experiment: Z'-LYTE kinase assay, JAK1 tyrosine phosphorylation activity
- condition.label: read-out: JAK 1 IC50
experimental.readout: IC50

Consider the following illustrative entries.
{"structure.string": "CCOC(=O)Nc1cccc(Nc2ncc(C(N)=O)c(NC3CCCC3)n2)c1", "IC50": "100 to 1000 nM"}
{"structure.string": "CN(C(=O)N1CCCC1)c1cccc(Nc2ncc(C(N)=O)c(NCC3CC3)n2)c1", "IC50": "100 to 1000 nM"}
{"structure.string": "CC(=O)Nc1cccc(Nc2ncc(C(N)=O)c(NCc3cccnc3)n2)c1", "IC50": "100 to 1000 nM"}
{"structure.string": "CC(=O)Nc1cccc(Nc2cc(NCC3CCC3)c(C(N)=O)cn2)c1", "IC50": "100 to 1000 nM"}

For every item in the list below, what is its measured IC50?
1. COc1ccc(Nc2ncc(C(N)=O)c(NCc3cccc(F)c3)n2)cc1N(C)C(=O)N1CCCC1
2. CC(=O)Nc1cccc(Nc2ncc(C(N)=O)c(Nc3ccc(S(C)(=O)=O)cc3)n2)c1
3. NC(=O)c1cnc(Nc2cccc(NC(=O)C3CC3)c2)nc1NCC(F)(F)F
4. NC(=O)c1cnc(Nc2cccc(NC(=O)N3CCCC3)c2)cc1NCc1cccnc1

1: > 1000 nM; 2: > 1000 nM; 3: 100 to 1000 nM; 4: > 1000 nM
